Measured pIC50 by item
TARGET_DESC: full-length recombinant human FYN A (Homo sapiens (Human))
PROCEDURE_TEXT: ADP-Glo Kinase Assay of FYN kinase inhibition
Assay type: biochemical
RECORDED_CONDITIONS: secondary screen, re-synthesized and expanded compounds
pIC50: −log10 of the molar value.
RESULT_TYPE: pIC50

Oc1cccc(-c2cnc3ccc(-c4ccncc4)nn23)c1
6.47
COc1cc(-c2cc(-c3ccc(N4CCN(C)CC4)cc3)cnc2N)ccc1O
6.92
CN(C)C(=O)c1cccc(-c2cn3c(-c4ccc(O)cc4)cnc3cn2)c1
6.06
COc1cc(-c2cnc3ccc(NCc4ccc5c(c4)OCO5)nn23)ccc1O
5.88
COc1cc(-c2cc(-c3ccc(S(C)(=O)=O)cc3)cnc2N)ccc1O
6.50

###

TARGET_DESC: full-length recombinant human FYN A (Homo sapiens (Human))
PROCEDURE_TEXT: ADP-Glo Kinase Assay of FYN kinase inhibition
Assay type: biochemical
RECORDED_CONDITIONS: primary screen, initial compounds
Measured IC50 by item
RESULT_TYPE: IC50 (nM)

O=C(O)c1ccc(-c2cnc3ccc(NCc4ccco4)nn23)cc1
3880
COc1ccc(-c2cnc3ccc(N[C@H](CO)C(C)C)nn23)cc1OC
778
CN1CCN(c2ccc(-c3cn4c(-c5cccc(O)c5)cnc4cn3)cc2)CC1
1590
CC(=O)Nc1ccc(-c2ccc3ncc(-c4ccc(CO)cc4)n3n2)cc1
21500
Oc1cccc(-c2cnc3ccc(-c4cccc5ncccc45)nn23)c1
14600
c1ccc(Cc2ccc3ncc(-c4ccncc4)n3n2)cc1
624
CC(=O)c1cccc(-c2cnc3ccc(-c4cccc(N(C)C)c4)nn23)c1
886
COc1cccc(-c2ccc3ncc(-c4cccc(CO)c4)n3n2)c1
2740
OCc1cccc(-c2ccc3ncc(-c4ccoc4)n3n2)c1
7330
Oc1cccc(-c2cnc3ccc(C4CC4)nn23)c1
1890
COc1cncc(-c2cnc3ccc(Cc4ccc(F)cc4)nn23)c1
4420
c1cc(-c2cnc3ccc(-c4ccoc4)nn23)ccn1
1020
CN1CCN(c2ccc(-c3cn4c(-c5ccsc5)cnc4cn3)cn2)CC1
7050

###

TARGET_DESC: full-length recombinant human FYN A (Homo sapiens (Human))
PROCEDURE_TEXT: ADP-Glo Kinase Assay of FYN kinase inhibition
Type: biochemical
RECORDED_CONDITIONS: secondary screen, re-synthesized and expanded compounds
Could you mark each record yes if its IC50 falls strictly under 300 nM, and no if it equals or exceeds it?

CN(C)C(=O)c1cccc(-c2cnc3sc(NCC4CCOCC4)nn23)c1
no
COc1ccc(-c2ccc3ncc(-c4cccc(CO)c4)n3n2)cc1OC
no
COc1cc(-c2cc(-c3cc(OC)c(OC)c(OC)c3)cnc2N)ccc1O
yes
CCCNc1ccc2ncc(-c3ccncc3)n2n1
yes
COc1cc(-c2cnc3ccc(NC4CCOCC4)nn23)ccc1O
yes
COc1cc(-c2cc(-c3ccc(OCCCN(C)C)nc3)cnc2N)cc(OC)c1OC
no
CC(=O)Nc1cccc(-c2cnc3ccc(NC4CCOCC4)nn23)c1
no
c1ccc(CNc2ccc3ncc(-c4ccc5c(c4)OCO5)n3n2)nc1
no
COc1cc(-c2cc(-c3ccc(N4CCN(C(C)C)CC4)cc3)cnc2N)ccc1O
yes
COc1cccc(-c2cnc3ccc(NC4CCOCC4)nn23)c1
no

###

TARGET_DESC: full-length recombinant human FYN A (Homo sapiens (Human), UniProt P06241)
Sequence (P06241 whole entry): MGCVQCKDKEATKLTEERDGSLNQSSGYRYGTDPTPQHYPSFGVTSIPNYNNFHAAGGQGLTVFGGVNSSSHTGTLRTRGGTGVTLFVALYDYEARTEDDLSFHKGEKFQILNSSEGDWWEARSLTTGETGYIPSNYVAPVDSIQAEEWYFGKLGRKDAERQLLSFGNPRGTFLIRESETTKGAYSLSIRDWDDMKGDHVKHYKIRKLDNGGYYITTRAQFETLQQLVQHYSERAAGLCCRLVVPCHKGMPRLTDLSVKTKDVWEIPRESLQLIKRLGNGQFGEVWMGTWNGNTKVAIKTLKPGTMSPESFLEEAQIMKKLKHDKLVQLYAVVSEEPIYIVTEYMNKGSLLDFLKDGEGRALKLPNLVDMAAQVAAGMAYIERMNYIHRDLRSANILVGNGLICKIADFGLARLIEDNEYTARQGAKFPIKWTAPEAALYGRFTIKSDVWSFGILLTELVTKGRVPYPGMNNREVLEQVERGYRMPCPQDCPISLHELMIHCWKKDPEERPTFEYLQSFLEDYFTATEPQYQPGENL
PROCEDURE_TEXT: ADP-Glo Kinase Assay of FYN kinase inhibition
Type: biochemical
RECORDED_CONDITIONS: primary screen, initial compounds
pIC50: −log10 of the molar value.
Entry flag: rule met if pIC50 reaches 6; rule not met if it does not.

Oc1ccc(-c2cnc3cnc(-c4ccc(Cl)cc4)cn23)cc1 [Compound 208]
rule not met
COc1cc(-c2cc(-c3ccc(F)cc3)cnc2N)cc(OC)c1OC [382_0087_0339]
rule not met
COc1ccccc1-c1cc2c(Nc3cccc(C(F)(F)F)c3)nccc2n1C [Compound 598]
rule not met
COc1cc(-c2cnc3cnc(-c4ccc(C(=O)NCCN(C)C)cc4)cn23)ccc1O [388_0314_0327]
rule met
NC(=O)c1ccc(-c2cnc3ccc(Cc4ccc(F)c(F)c4)nn23)cc1 [Compound 464]
rule not met

###

TARGET_DESC: full-length recombinant human FYN A (Homo sapiens (Human), UniProt P06241)
PROCEDURE_TEXT: ADP-Glo Kinase Assay of FYN kinase inhibition
Assay type: biochemical
RECORDED_CONDITIONS: secondary screen, re-synthesized and expanded compounds
RESULT_TYPE: IC50 (nM)

CCCNc1ccc2ncc(-c3ccc(O)c(OC)c3)n2n1 [BF000147080]
81.6
CC(=O)Nc1cccc(-c2ccc3ncc(-c4cccc(NC(C)=O)c4)n3n2)c1 [BF000726346]
648
OCCCNc1ccc2ncc(-c3ccc4c(c3)OCO4)n2n1 [BF000146218]
708

###

TARGET_DESC: full-length recombinant human FYN A (Homo sapiens (Human), UniProt P06241)
PROCEDURE_TEXT: ADP-Glo Kinase Assay of FYN kinase inhibition
Assay type: biochemical
RECORDED_CONDITIONS: primary screen, initial compounds
RESULT_TYPE: log10 of IC50 (log10 of the value in nM)

COc1cc(-c2cc(-c3cccc(F)c3)cnc2N)cc(OC)c1OC
3.18
c1ccc(-c2cnc3ccc(-c4cccnc4)nn23)cc1
3.58
CC(=O)Nc1cccc(-c2ccc3ncc(-c4ccc5c(c4)OCO5)n3n2)c1
3.05
CCCNc1ccc2ncc(-c3cccc(C(C)=O)c3)n2n1
2.56
COc1cc(-c2cnc3ccc(NCc4cccs4)nn23)cc(OC)c1OC
3.49
CNC(=O)c1cccc(-c2ccc3ncc(-c4cccc(NC(C)=O)c4)n3n2)c1
3.12
CC(=O)Nc1cccc(-c2cnc3ccc(-c4cccs4)nn23)c1
2.32
CS(=O)(=O)Nc1cccc(-c2cc(NC=O)c3ncc(-c4ccc(F)c(Cl)c4)n3c2)c1
3.46
c1cc(CCNc2nn3c(-c4ccncc4)cnc3s2)ccn1
3.39
NC(=O)c1cccc(-c2ccc3ncc(-c4cccc(O)c4)n3n2)c1
2.49
CN(C)CCNC(=O)c1ccc(-c2cn3c(-c4ccsc4)cnc3cn2)cc1
3.28
CC(C)CNc1nn2c(-c3cccc(NS(C)(=O)=O)c3)cnc2s1
3.85
COc1cc(-c2cnc(N)c(-c3cccc(N)c3)c2)cc(OC)c1OC
3.47
COc1cccc(-c2ccc3ncc(-c4cccc(O)c4)n3n2)c1
3.09
COc1ccccc1-c1n[nH]c2nccc(-c3ccco3)c12
3.36
Oc1cccc(-c2cnc3ccc(-c4ccncc4)nn23)c1
2.31
CN(C)c1cccc(-c2cnc3sc(NC4CCC(O)CC4)nn23)c1 (centres unmarked)
3.76
CC(=O)Nc1cccc(-c2cnc3ccc(-c4ccccc4)nn23)c1
2.89
CN(C)CCNC(=O)c1cccc(-c2cnc3ccc(-c4cccc(C(N)=O)c4)nn23)c1
3.62
COc1cc(-c2n[nH]c3nccc(-c4cccc(NS(C)(=O)=O)c4)c23)cc(OC)c1OC
4.11
COc1ccc(-c2cnc3ccc(NCc4ccco4)nn23)cc1
3.57
OCc1ccc(-c2cnc3ccc(NCc4cccs4)nn23)cc1
3.04
COc1ccc(-c2cnc(N)c(-c3cccc(N(C)C)c3)c2)cc1OC
3.70

###

TARGET_DESC: full-length recombinant human FYN A (Homo sapiens (Human))
PROCEDURE_TEXT: ADP-Glo Kinase Assay of FYN kinase inhibition
Type: biochemical
RECORDED_CONDITIONS: primary screen, initial compounds
RESULT_TYPE: IC50

CN(C)C(=O)c1cccc(-c2cnc3sc(NCC4CC4)nn23)c1
977 nM
CN(C)CCCOc1ccc(-c2cn3c(-c4ccc(O)cc4)cnc3cn2)cn1
1320 nM
CN(C)C(=O)c1cccc(-c2cnc3sc(NCc4ccccc4)nn23)c1
1510 nM

###

TARGET_DESC: full-length recombinant human FYN A (Homo sapiens (Human), UniProt P06241)
PROCEDURE_TEXT: ADP-Glo Kinase Assay of FYN kinase inhibition
Assay type: biochemical
RECORDED_CONDITIONS: primary screen, initial compounds
pIC50: −log10 of the molar value.
RESULT_TYPE: pIC50

CN(C)c1cccc(-c2cnc(N)c(-c3ccc(O)cc3)c2)c1
5.66
CC(=O)Nc1cccc(-c2cnc3ccc(NC4CCOCC4)nn23)c1
6.23
COc1ccc(-c2cnc3ccc(-c4ccccc4)nn23)cc1OC
6.38

###

TARGET_DESC: full-length recombinant human FYN A (Homo sapiens (Human))
PROCEDURE_TEXT: ADP-Glo Kinase Assay of FYN kinase inhibition
Format: biochemical
RECORDED_CONDITIONS: primary screen, initial compounds
RESULT_TYPE: IC50 (nM)

OCc1cccc(-c2cnc3ccc(NCc4cccc(Cl)c4)nn23)c1
5110
CN(C)C(=O)c1cccc(-c2cnc3sc(NCCc4ccncc4)nn23)c1
721
CC(=O)Nc1cccc(-c2ccc3ncc(-c4cccc(NC(C)=O)c4)n3n2)c1
553

Data provenance is patent US10688093B2.
